Test system: CCRIS mutagenicity, Ames/micronucleus/aberration tests
Test: CCRIS mutagenicity studies
Details: Test System: AMES SALMONELLA TYPHIMURIUM; Strain/Indicator: TA100; Metabolic Activation: HAMSTER, LIVER, S-9, AROCLOR 1254; Method: STANDARD PLATE
Calls of active or inactive are those of the source. How the calls were made is not given here.
// allowed return values: active, inactive

Observe how each entry below is paired with its result.
smiles_structure | qualitative_label
O=[N+]([O-])c1ccc2[nH]ncc2c1 | active
CCC/C=N/O | inactive
CN(C)c1ccc(Cc2ccc(N(C)C)cc2)cc1 | inactive
C=Cc1ccc(O)c(OC)c1 | inactive
O=C/C=C/C=C\c1ccc([N+](=O)[O-])cc1 | active

Request: Which result was noted for this compound in the test: `Nc1ccc(F)cc1`
Result: active

* * *

Tested on: CCRIS mutagenicity, Ames/micronucleus/aberration tests
Assay: CCRIS mutagenicity studies
Conditions: Test System: AMES SALMONELLA TYPHIMURIUM; Strain/Indicator: TA100; Metabolic Activation: NONE; Method: STANDARD PLATE
Calls of active or inactive are those of the source. How the calls were made is not given here.
outcome_measure: mutagenic call

Use these answered entries as a reference point.
compound | outcome_measure | data_value
CC1=C[C@H]2O[C@@H]3[C@H](O)C[C@](C)([C@@]2(CO)[C@H](O)C1=O)[C@]31CO1 | mutagenic call | inactive; negative
C[C@@H]1Cc2c(Cl)cc(C(=O)NC(Cc3ccccc3)C(=O)O)c(O)c2C(=O)O1 (some centres undefined) | mutagenic call | inactive; negative
CCCN(CCC)CCc1cccc2[nH]c3c(C)ccc(C)c3c12 | mutagenic call | inactive; negative
CCC(=O)Nc1ccc(Cl)c(Cl)c1 | mutagenic call | inactive; negative
CCCCCCCCCCCCCCCC(=O)OC[C@H](O)[C@H]1OC(=O)C(O)=C1O | mutagenic call | inactive; negative

Request: Look up mutagenic call with CCRIS mutagenicity, Ames/micronucleus/aberration tests for this compound: `ClC(Cl)=C(Cl)C(Cl)=C(Cl)Cl`
Result: active; positive

Request: Look up mutagenic call with CCRIS mutagenicity, Ames/micronucleus/aberration tests for this compound: `Nc1ccc(F)cc1`
Result: inactive; negative

Request: Look up mutagenic call with CCRIS mutagenicity, Ames/micronucleus/aberration tests for this compound: `BrCc1cc2c3c(cccc3c1)-c1ccccc1-2`
Result: active; positive

* * *

Test system: CCRIS mutagenicity, Ames/micronucleus/aberration tests
Assay: CCRIS mutagenicity studies
Conditions: Test System: E. COLI; Strain/Indicator: WP2 UVRA; Metabolic Activation: RAT, LIVER, S-9, AROCLOR 1254; Method: STANDARD PLATE
The source made the active and inactive calls. The rule behind the calls is not given here.
// allowed return values: 1 for active, -1 for inactive

compound | qualitative_label
c1ccc2cc3ccccc3cc2c1 | -1
Nc1c2ccccc2nc2ccccc12 | -1
ClCC1CO1 (stereo not given) | 1

Request: Which result was noted for this compound in the test: COP(=O)(OC)C(O)C(Cl)(Cl)Cl (stereo not given)
Result: 1

Request: Which result was noted for this compound in the test: `ClCc1cccnc1`
Result: -1

Request: Which result was noted for this compound in the test: `COC(=O)[C@H]1[C@H]2C[C@@H]3c4[nH]c5cc(OC)ccc5c4CCN3C[C@H]2C[C@@H](OC(=O)c2cc(OC)c(OC)c(OC)c2)[C@@H]1OC`
Result: -1

Request: Which result was noted for this compound in the test: `c1ccc(NNc2ccccc2)cc1`
Result: -1

Request: Which result was noted for this compound in the test: `O=C1CN=C(c2ccccc2)c2cc([N+](=O)[O-])ccc2N1`
Result: -1

Request: Which result was noted for this compound in the test: `CN(C)c1ccc(Cc2ccc(N(C)C)cc2)cc1`
Result: -1

Request: Which result was noted for this compound in the test: `Nc1ccc([N+](=O)[O-])cc1N`
Result: -1

Request: Which result was noted for this compound in the test: `c1ccc2cc3c(ccc4ccccc43)cc2c1`
Result: -1

Request: Which result was noted for this compound in the test: `c1ccc2c(c1)c1cccc3ccc4cccc2c4c31`
Result: -1

Request: Which result was noted for this compound in the test: `CN(C)C(=O)Cl`
Result: -1

Request: Which result was noted for this compound in the test: `CC(N)=S`
Result: -1

Request: Which result was noted for this compound in the test: `C[C@H](CCC(=O)O)[C@H]1CC[C@H]2[C@@H]3CC[C@@H]4C[C@H](O)CC[C@]4(C)[C@H]3CC[C@]12C`
Result: -1
